Each entry below lists one item and its recorded polymerase ribozyme fitness (log ratio) value.
B1: TPR t1 (parent)
chain: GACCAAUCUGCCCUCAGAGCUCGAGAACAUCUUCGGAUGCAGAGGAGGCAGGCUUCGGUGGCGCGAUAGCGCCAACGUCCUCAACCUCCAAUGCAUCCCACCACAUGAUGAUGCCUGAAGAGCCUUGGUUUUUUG

# Variants of: B1
# TEST_SUMMARY: polymerase ribozyme fitness, log enrichment relative to wild type (log ratio); higher = more active; in vitro selection for triplet polymerase activity

>  <VARIANT_KEY>
C3U A37U C40A G60U

>  <polymerase ribozyme fitness (log ratio)>
-1.23

$$$$
>  <VARIANT_KEY>
C4G G45C C70A

>  <polymerase ribozyme fitness (log ratio)>
-4.27

$$$$
>  <VARIANT_KEY>
C8A A50U C89A A90G

>  <polymerase ribozyme fitness (log ratio)>
-2.46

$$$$
>  <VARIANT_KEY>
G117C G127C

>  <polymerase ribozyme fitness (log ratio)>
-5.04

$$$$
>  <VARIANT_KEY>
C73G C123U

>  <polymerase ribozyme fitness (log ratio)>
0.00475

$$$$
>  <VARIANT_KEY>
G71U A83G A91C U96C G110A

>  <polymerase ribozyme fitness (log ratio)>
-6.02

$$$$
>  <VARIANT_KEY>
G19U A37U

>  <polymerase ribozyme fitness (log ratio)>
-3.17

$$$$
>  <VARIANT_KEY>
C22G C64U C115U A121U

>  <polymerase ribozyme fitness (log ratio)>
-2.57

$$$$
>  <VARIANT_KEY>
C12G C56U A100C G117U

>  <polymerase ribozyme fitness (log ratio)>
-3.6

$$$$
>  <VARIANT_KEY>
U7C G42C U87A

>  <polymerase ribozyme fitness (log ratio)>
-1.73

$$$$
>  <VARIANT_KEY>
G45C C53A G120A U129G

>  <polymerase ribozyme fitness (log ratio)>
-1.07

$$$$
>  <VARIANT_KEY>
G69U G93A

>  <polymerase ribozyme fitness (log ratio)>
-0.201

$$$$
>  <VARIANT_KEY>
C20A C73A

>  <polymerase ribozyme fitness (log ratio)>
-2.14

$$$$
>  <VARIANT_KEY>
C79G C89U A91C

>  <polymerase ribozyme fitness (log ratio)>
-4.46

$$$$
>  <VARIANT_KEY>
C15U G47U G52C C53A C124G

>  <polymerase ribozyme fitness (log ratio)>
-1.51

$$$$
>  <VARIANT_KEY>
C3A G61A

>  <polymerase ribozyme fitness (log ratio)>
-1.23

$$$$
>  <VARIANT_KEY>
G63U G127A

>  <polymerase ribozyme fitness (log ratio)>
-2.25

$$$$
>  <VARIANT_KEY>
C49G C115G

>  <polymerase ribozyme fitness (log ratio)>
-2.98

$$$$
>  <VARIANT_KEY>
C11G A41U G47C U59A

>  <polymerase ribozyme fitness (log ratio)>
-3.12

$$$$
>  <VARIANT_KEY>
A46G G127A

>  <polymerase ribozyme fitness (log ratio)>
-1.96

$$$$
>  <VARIANT_KEY>
C11A A119C C124G

>  <polymerase ribozyme fitness (log ratio)>
-4.46

$$$$
>  <VARIANT_KEY>
A37U G127U

>  <polymerase ribozyme fitness (log ratio)>
-1.42

$$$$
>  <VARIANT_KEY>
C11G G71U

>  <polymerase ribozyme fitness (log ratio)>
0.0897

$$$$
>  <VARIANT_KEY>
C3A C62U A105G

>  <polymerase ribozyme fitness (log ratio)>
-4.05

$$$$
>  <VARIANT_KEY>
G60C G117A

>  <polymerase ribozyme fitness (log ratio)>
-0.79

$$$$
>  <VARIANT_KEY>
G69A C115G

>  <polymerase ribozyme fitness (log ratio)>
-3.93

$$$$
>  <VARIANT_KEY>
C13A G44A C89U C102G

>  <polymerase ribozyme fitness (log ratio)>
-6.88

$$$$
>  <VARIANT_KEY>
G42C G44U G117U A118U

>  <polymerase ribozyme fitness (log ratio)>
-5.32

$$$$
>  <VARIANT_KEY>
C22G G120A

>  <polymerase ribozyme fitness (log ratio)>
-2.9

$$$$
>  <VARIANT_KEY>
U54C C124U

>  <polymerase ribozyme fitness (log ratio)>
1.81

$$$$
>  <VARIANT_KEY>
U38C G42C U78A A84C

>  <polymerase ribozyme fitness (log ratio)>
-3.16

$$$$
>  <VARIANT_KEY>
U7G G52A C104A C114G U133G

>  <polymerase ribozyme fitness (log ratio)>
-3.61

$$$$
>  <VARIANT_KEY>
U59A U112A

>  <polymerase ribozyme fitness (log ratio)>
1.47

$$$$
>  <VARIANT_KEY>
G61C U92A C98U C101U U106A U112G G120C

>  <polymerase ribozyme fitness (log ratio)>
-7.61

$$$$
>  <VARIANT_KEY>
C73A A74G

>  <polymerase ribozyme fitness (log ratio)>
-0.555

$$$$
>  <VARIANT_KEY>
U55G U116G

>  <polymerase ribozyme fitness (log ratio)>
-2.12

$$$$
>  <VARIANT_KEY>
C15A C20U C73A G93A

>  <polymerase ribozyme fitness (log ratio)>
-3.83

$$$$
>  <VARIANT_KEY>
U106A G117C

>  <polymerase ribozyme fitness (log ratio)>
-1.94

$$$$
>  <VARIANT_KEY>
U87G U130G

>  <polymerase ribozyme fitness (log ratio)>
-0.21

$$$$
>  <VARIANT_KEY>
U67C C88A

>  <polymerase ribozyme fitness (log ratio)>
-5.76

$$$$
>  <VARIANT_KEY>
U21G C73G A83G

>  <polymerase ribozyme fitness (log ratio)>
-3.58

$$$$
>  <VARIANT_KEY>
U92G A121G

>  <polymerase ribozyme fitness (log ratio)>
-0.555

$$$$
>  <VARIANT_KEY>
G69U C70G U109A A111C

>  <polymerase ribozyme fitness (log ratio)>
-5.41

$$$$
>  <VARIANT_KEY>
U87C A90C C115A

>  <polymerase ribozyme fitness (log ratio)>
-0.371

$$$$
>  <VARIANT_KEY>
C4A U7A

>  <polymerase ribozyme fitness (log ratio)>
-0.986

$$$$
>  <VARIANT_KEY>
U38A G71U C80U A95G C124A

>  <polymerase ribozyme fitness (log ratio)>
-0.159

$$$$
>  <VARIANT_KEY>
C8U U59G

>  <polymerase ribozyme fitness (log ratio)>
0.21

$$$$
>  <VARIANT_KEY>
C104U A118U U131A

>  <polymerase ribozyme fitness (log ratio)>
0.243

$$$$
>  <VARIANT_KEY>
C124G U125A U134C

>  <polymerase ribozyme fitness (log ratio)>
0.622

$$$$
>  <VARIANT_KEY>
A37U C98A

>  <polymerase ribozyme fitness (log ratio)>
-5.84

$$$$
>  <VARIANT_KEY>
A50U C53A U55C C73U

>  <polymerase ribozyme fitness (log ratio)>
-0.723

$$$$
>  <VARIANT_KEY>
G60U C101U A111C

>  <polymerase ribozyme fitness (log ratio)>
0.104

$$$$
>  <VARIANT_KEY>
A43U C56G

>  <polymerase ribozyme fitness (log ratio)>
-1.4

$$$$
>  <VARIANT_KEY>
C104A C124U U130A

>  <polymerase ribozyme fitness (log ratio)>
-3.43

$$$$
>  <VARIANT_KEY>
A108G U116A C123U

>  <polymerase ribozyme fitness (log ratio)>
-6.42

$$$$
>  <VARIANT_KEY>
C12A A16U C56A

>  <polymerase ribozyme fitness (log ratio)>
-3.74

$$$$
>  <VARIANT_KEY>
U9C C49A A91C C104U

>  <polymerase ribozyme fitness (log ratio)>
-1.34

$$$$
>  <VARIANT_KEY>
U32C G44A G61U U131G

>  <polymerase ribozyme fitness (log ratio)>
-0.948

$$$$
>  <VARIANT_KEY>
G60A G69U

>  <polymerase ribozyme fitness (log ratio)>
-0.576

$$$$
>  <VARIANT_KEY>
G10A C56A G110A

>  <polymerase ribozyme fitness (log ratio)>
-0.729

$$$$
>  <VARIANT_KEY>
U7G C13A A37C G52A G69C

>  <polymerase ribozyme fitness (log ratio)>
-1.85

$$$$
>  <VARIANT_KEY>
C40A C56G

>  <polymerase ribozyme fitness (log ratio)>
-2.58

$$$$
>  <VARIANT_KEY>
G25U A26G C64U

>  <polymerase ribozyme fitness (log ratio)>
-2.74

$$$$
>  <VARIANT_KEY>
C22G G42C G61U C89U

>  <polymerase ribozyme fitness (log ratio)>
-5.61

$$$$
>  <VARIANT_KEY>
C4A U78C

>  <polymerase ribozyme fitness (log ratio)>
-1.45

$$$$
>  <VARIANT_KEY>
G19C G63C A111G C115G

>  <polymerase ribozyme fitness (log ratio)>
-5.11

$$$$
>  <VARIANT_KEY>
G69A U96C

>  <polymerase ribozyme fitness (log ratio)>
-3.08

$$$$
>  <VARIANT_KEY>
A5G U109G

>  <polymerase ribozyme fitness (log ratio)>
-4.99

$$$$
>  <VARIANT_KEY>
C62U G93U U112G U129A

>  <polymerase ribozyme fitness (log ratio)>
-3.65

$$$$
>  <VARIANT_KEY>
C62U A95U

>  <polymerase ribozyme fitness (log ratio)>
-2.57

$$$$
>  <VARIANT_KEY>
C88G C104U C123G

>  <polymerase ribozyme fitness (log ratio)>
1.53

$$$$
>  <VARIANT_KEY>
G52A G57U C72U

>  <polymerase ribozyme fitness (log ratio)>
-0.842

$$$$
>  <VARIANT_KEY>
C70U C79U C124U

>  <polymerase ribozyme fitness (log ratio)>
1

$$$$
>  <VARIANT_KEY>
C28U C72U

>  <polymerase ribozyme fitness (log ratio)>
-2.26

$$$$
>  <VARIANT_KEY>
U81G G110A

>  <polymerase ribozyme fitness (log ratio)>
-6.43

$$$$
>  <VARIANT_KEY>
C3U G17C G117U

>  <polymerase ribozyme fitness (log ratio)>
-6.24

$$$$
>  <VARIANT_KEY>
C70U A74C C101U

>  <polymerase ribozyme fitness (log ratio)>
-0.934

$$$$
>  <VARIANT_KEY>
G63U U81C C86A U129C

>  <polymerase ribozyme fitness (log ratio)>
-5.92

$$$$
>  <VARIANT_KEY>
U7A U21A G61C C114G

>  <polymerase ribozyme fitness (log ratio)>
-5.5

$$$$
>  <VARIANT_KEY>
A2C C82A

>  <polymerase ribozyme fitness (log ratio)>
-2.04

$$$$
>  <VARIANT_KEY>
A6U G60C

>  <polymerase ribozyme fitness (log ratio)>
0.0676

$$$$
>  <VARIANT_KEY>
C20U A100U G120U

>  <polymerase ribozyme fitness (log ratio)>
-1.89

$$$$
>  <VARIANT_KEY>
C56A C124G

>  <polymerase ribozyme fitness (log ratio)>
1.08

$$$$
>  <VARIANT_KEY>
G25U C56G U81G A121G C124U

>  <polymerase ribozyme fitness (log ratio)>
-5.96

$$$$
>  <VARIANT_KEY>
U21C U112A G122C C123U

>  <polymerase ribozyme fitness (log ratio)>
-0.556

$$$$
>  <VARIANT_KEY>
G17A G57C

>  <polymerase ribozyme fitness (log ratio)>
-2.86

$$$$
>  <VARIANT_KEY>
C13G C15U G120A

>  <polymerase ribozyme fitness (log ratio)>
-2.44

$$$$
>  <VARIANT_KEY>
C3A C40A G47A G60A A75U C86U C97U C123A U132A

>  <polymerase ribozyme fitness (log ratio)>
-1.07

$$$$
>  <VARIANT_KEY>
U59C U130C

>  <polymerase ribozyme fitness (log ratio)>
-0.123

$$$$
>  <VARIANT_KEY>
A24C G63A

>  <polymerase ribozyme fitness (log ratio)>
-6.87

$$$$
>  <VARIANT_KEY>
C8G G122A

>  <polymerase ribozyme fitness (log ratio)>
0.556

$$$$
